Outcome: true for glass transition temperature of at least 200 °C; false for anything lower.

[[record]]
molecule = "*C(=O)Nc1cccc(Oc2ccc(C(=O)c3ccc(Oc4cccc(NC(=O)c5ccc(*)nc5)c4)cc3)cc2)c1 (repeat unit)"
class_name = "false"


Please tell me: is the molecule *c1ccc(Oc2ccc(Oc3ccc(P(=O)(c4ccccc4)c4ccc(Oc5ccc(Oc6ccc(-c7nc8cc9sc(*)nc9cc8s7)cc6)cc5)cc4)cc3)cc2)cc1 (repeat unit) at or over 200 °C in terms of glass transition temperature?
true

Please tell me: is the molecule *CCCCOC(=O)c1ccc(-c2ccc(-c3ccc(C(=O)O*)cc3)cc2)cc1 (repeat unit) at or over 200 °C in terms of glass transition temperature?
false

Please tell me: is the molecule *c1ccc(-c2nc3cc(S(=O)(=O)c4ccc5nc(-c6ccccc6)c(-c6ccc(-n7c(=O)c8cc9c(=O)n(*)c(=O)c9cc8c7=O)cc6)nc5c4)ccc3nc2-c2ccccc2)cc1 (repeat unit) at or over 200 °C in terms of glass transition temperature?
false

Please tell me: is the molecule *Oc1ccc(C(c2ccc(Oc3ccc(C(=O)c4c(C(=O)c5ccc(*)cc5)c(-c5ccccc5)c(-c5ccc6ccccc6c5)c(-c5ccc6ccccc6c5)c4-c4ccccc4)cc3)cc2)(C(F)(F)F)C(F)(F)F)cc1 (repeat unit) at or over 200 °C in terms of glass transition temperature?
true

Please tell me: is the molecule *CCCCCCCCCOC(=O)c1ccc(-c2ccc(C(=O)O*)cc2)cc1 (repeat unit) at or over 200 °C in terms of glass transition temperature?
false

Please tell me: is the molecule */C(C#N)=C(\C#N)n1c(=O)c2cc3c(=O)n(*)c(=O)c3cc2c1=O (repeat unit) at or over 200 °C in terms of glass transition temperature?
true

Where do the numbers come from? From the PolyMetriX glass transition set.
